For each record, write down the corresponding MIC.
# Test system: E. faecium MMX 708 VSE
# Procedure Text: MIC broth microdilution
# Format: cell-based
# Experimental Setup: Enterococcus faecium, MMX708VSE
# Protocol: Twenty-four test agents were shipped to Micromyx and stored at −20° C. until assayed. The compounds were dissolved in 100% DMSO at 6.46 mg/mL prior to testing. Comparator drugs were supplied by Micromyx and were handled as described below: The test organisms for the assay were recent clinical isolates or reference strains acquired from the American Type Culture Collection (ATCC; Manassas, Va.). […] MIC values were determined using a broth microdilution method as recommended by CLSI. […]
Quick note: give the figure in µg/mL, leave out the unit.

For record C=C(NC(=O)C(=C)NC(=O)c1csc(C2=N[C@@H]3c4csc(n4)[C@H]4NC(=O)c5csc(n5)[C@H]([C@](C)(O)[C@@H](C)O)NC(=O)[C@H]5CSC(=N5)/C(=C/C)NC(=O)[C@H]([C@@H](C)O)NC(=O)c5csc(n5)[C@]3(CC2)NC(=O)[C@H](C)NC(=O)C(=C)NC(=O)[C@H](C)NC(=O)[C@H]([C@@H](C)CC)N[C@@H]2C=Cc3c([C@H](C)O)cc(nc3[C@H]2O)C(=O)O[C@@H]4C)n1)C(N)=O the listed MIC is 0.12

The reported MIC of the compound C=C(NC(=O)c1csc(C2=N[C@@H]3c4csc(n4)[C@H]4NC(=O)c5csc(n5)[C@H]([C@](C)(O)[C@@H](C)O)NC(=O)C5CSC(=N5)/C(=C/C)NC(=O)[C@H]([C@@H](C)O)NC(=O)c5csc(n5)[C@]3(CC2)NC(=O)[C@H](C)NC(=O)C(=C)NC(=O)[C@H](C)NC(=O)[C@H]([C@@H](C)CC)N[C@@H]2C=Cc3c([C@H](C)O)cc(nc3[C@H]2O)C(=O)O[C@@H]4C)n1)C(=O)NC(=CNC(=O)c1ccccc1)C(N)=O was 0.5

Reported MIC ( CN[C@H](CC(C)C)C(=O)N[C@H]1C(=O)N[C@@H](CC(N)=O)C(=O)N[C@H]2C(=O)N[C@H]3C(=O)N[C@H](C(=O)N[C@H](C(=O)O)c4cc(O)cc(O)c4-c4cc3ccc4O)[C@H](O)c3ccc(c(Cl)c3)Oc3cc2cc(c3O[C@@H]2O[C@H](CO)[C@@H](O)[C@H](O)[C@H]2O[C@H]2C[C@](C)(N)[C@H](O)[C@H](C)O2)Oc2ccc(cc2Cl)[C@H]1O [Vancomycin, reference compound] ) = 0.25

Input C=C(NC(=O)c1csc(C2=N[C@@H]3c4csc(n4)[C@H]4NC(=O)c5csc(n5)[C@H]([C@](C)(O)[C@@H](C)O)NC(=O)C5CSC(=N5)/C(=C/C)NC(=O)[C@H]([C@@H](C)O)NC(=O)c5csc(n5)[C@]3(CC2)NC(=O)[C@H](C)NC(=O)C(=C)NC(=O)[C@H](C)NC(=O)[C@H]([C@@H](C)CC)N[C@@H]2C=Cc3c([C@H](C)O)cc(nc3[C@H]2O)C(=O)O[C@@H]4C)n1)C(=O)NC(=CNC(=O)c1ccc(OC)cc1)C(N)=O . Output MIC: 1
